Biological target: Broad substrate specificity ATP-binding cassette transporter ABCG2 (Homo sapiens)
Sequence (Q9UNQ0 whole entry): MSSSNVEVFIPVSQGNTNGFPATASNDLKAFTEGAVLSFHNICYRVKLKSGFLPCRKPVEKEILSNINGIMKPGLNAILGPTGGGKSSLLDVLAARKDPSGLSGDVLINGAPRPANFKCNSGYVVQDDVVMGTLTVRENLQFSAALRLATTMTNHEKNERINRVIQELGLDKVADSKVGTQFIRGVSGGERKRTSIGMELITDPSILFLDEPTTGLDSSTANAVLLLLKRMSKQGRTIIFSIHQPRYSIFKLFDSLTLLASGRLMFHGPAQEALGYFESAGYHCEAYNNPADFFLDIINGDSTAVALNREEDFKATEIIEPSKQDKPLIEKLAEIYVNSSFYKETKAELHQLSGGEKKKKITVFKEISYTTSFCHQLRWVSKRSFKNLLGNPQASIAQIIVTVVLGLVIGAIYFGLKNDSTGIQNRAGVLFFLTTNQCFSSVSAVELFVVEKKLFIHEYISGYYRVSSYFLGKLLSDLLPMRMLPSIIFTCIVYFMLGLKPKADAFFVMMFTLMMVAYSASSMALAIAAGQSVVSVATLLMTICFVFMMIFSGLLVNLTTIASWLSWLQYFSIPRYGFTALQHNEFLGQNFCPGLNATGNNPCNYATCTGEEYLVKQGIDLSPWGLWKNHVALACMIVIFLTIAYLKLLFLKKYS
Assay: Mixed inhibition of human ABCG2 transfected in human HEK293 cells assessed as Ki2 for inhibition of Hoechst33342 efflux measured after 30 mins by FACS Calibur cytometric analysis
Assay type: cell-based
pKi: −log10 of the molar value.

| test_smiles | pKi |
| --- | --- |
| COc1cccc(CCn2c3c(c4c(OCCCCOc5cccc6c5c5c(n6CCc6cccc(OC)c6)-c6ccccc6C5=O)cccc42)C(=O)c2ccccc2-3)c1 | 7.54 |

----------
Target: Broad substrate specificity ATP-binding cassette transporter ABCG2 (Homo sapiens)
Assay: Non-competitive inhibition of human ABCG2 transfected in human HEK293 cells assessed as Ki2 for inhibition of mitoxantrone efflux measured after 30 mins by FACS Calibur cytometric analysis
Type: cell-based
value_kind: Ki (nM)

| test_smiles | experimental_target | unit_of_measurement | experimental_value |
| --- | --- | --- | --- |
| COc1cccc(CCn2c3c(c4c(O)cccc42)C(=O)c2ccccc2-3)c1 | Broad substrate specificity ATP-binding cassette transporter ABCG2 (Homo sapiens) | nM | 250 |
